Parameter: pIC50. Scope: all listed entries.
- system name: pY641-STAT6 in PBMC (Homo sapiens, UniProt P42226)
- Construct: Cryopreserved Peripheral Blood Mononuclear Cells (PBMC) are from AllCells; host or cells: cryopreserved PBMC
- Sequence (P42226 whole entry): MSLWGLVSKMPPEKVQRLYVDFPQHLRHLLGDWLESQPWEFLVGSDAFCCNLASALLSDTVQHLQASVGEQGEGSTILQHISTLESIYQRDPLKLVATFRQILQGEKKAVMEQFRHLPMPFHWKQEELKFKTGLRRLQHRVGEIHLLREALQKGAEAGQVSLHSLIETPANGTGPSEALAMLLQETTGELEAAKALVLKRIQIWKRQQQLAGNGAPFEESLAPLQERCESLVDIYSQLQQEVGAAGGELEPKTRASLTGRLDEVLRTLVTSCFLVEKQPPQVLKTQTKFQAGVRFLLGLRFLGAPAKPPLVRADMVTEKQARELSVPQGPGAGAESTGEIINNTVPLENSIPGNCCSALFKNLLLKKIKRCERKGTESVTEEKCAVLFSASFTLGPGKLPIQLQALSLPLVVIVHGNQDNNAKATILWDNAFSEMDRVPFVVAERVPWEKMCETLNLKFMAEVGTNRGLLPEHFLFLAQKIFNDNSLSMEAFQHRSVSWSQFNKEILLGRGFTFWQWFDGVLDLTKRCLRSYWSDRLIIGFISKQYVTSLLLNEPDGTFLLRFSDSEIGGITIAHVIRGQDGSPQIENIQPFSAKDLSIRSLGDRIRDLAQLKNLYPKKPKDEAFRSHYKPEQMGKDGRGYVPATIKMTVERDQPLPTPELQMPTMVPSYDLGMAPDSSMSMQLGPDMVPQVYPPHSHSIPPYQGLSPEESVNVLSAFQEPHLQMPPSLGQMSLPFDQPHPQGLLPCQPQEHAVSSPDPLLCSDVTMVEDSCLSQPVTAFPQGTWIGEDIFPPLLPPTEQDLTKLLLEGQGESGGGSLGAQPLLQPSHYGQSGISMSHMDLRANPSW
- assay text: MSD-pSTAT-PBMC Assay (pSTAT6, IL-4 stimulated)
- Format: cell-based
- experimental parameters: PBMC, compound 3 hrs, then 1 ng/mL IL-4 for 10 min; Table 1114; read-out: pSTAT6
pIC50: −log10 of the molar value.

Use the examples below as a reference point.
| compound | system name | result |
| --- | --- | --- |
| CC(C)(C)C(=O)OCOP(=O)(OCOC(=O)C(C)(C)C)C(F)(F)c1ccc2sc(C(=O)N[C@H]3CCCC[C@H]4CC[C@@H](C(=O)N5C[C@H](c6ccccc6)[C@@H](C#N)C5)N4C3=O)cc2c1 (relative stereo) | pY641-STAT6 in PBMC (Homo sapiens, UniProt P42226) | > 7.00 |
| CC(C)C(=O)SCCOP(=O)(OCCSC(=O)C(C)C)C(F)(F)c1ccc2sc(C(=O)N[C@H]3CCCCC4CC[C@@H](C(=O)N5C[C@H](c6ccccc6)[C@@H](C#N)C5)N4C3=O)cc2c1 (single isomer, unassigned) | pY641-STAT6 in PBMC (Homo sapiens, UniProt P42226) | > 7.00 |
| CC(C)(C)C(=O)SCCOP(=O)(OCCSC(=O)C(C)(C)C)C(F)(F)c1ccc2sc(C(=O)N[C@H]3CC4(CC[C@H]5CC[C@@H](C(=O)N6CC(c7cccnc7)C6)N5C3=O)CC4)cc2c1 | pY641-STAT6 in PBMC (Homo sapiens, UniProt P42226) | < 5.52 |
| CC(C)(C)C(=O)OCOP(=O)(OCOC(=O)C(C)(C)C)C(F)(F)c1ccc2sc(C(=O)N[C@H]3CCC[C@H]4CC[C@@H](C(=O)N5CC(c6ccccn6)C5)N4C3=O)cc2c1 | pY641-STAT6 in PBMC (Homo sapiens, UniProt P42226) | 6.00 to 7.00 |

IN: Name the recorded pIC50 of the compound listed here: `CC(C)(C)C(=O)SCCOP(=O)(OCCSC(=O)C(C)(C)C)C(F)(F)c1ccc2sc(C(=O)N[C@H]3CCCC[C@H]4CC[C@@H](C(=O)N5CC(c6cccnc6)C5)N4C3=O)cc2c1`
OUT: < 5.52

IN: Name the recorded pIC50 of the compound listed here: `CC(C)(C)C(=O)OCOP(=O)(OCOC(=O)C(C)(C)C)C(F)(F)c1ccc2sc(C(=O)N[C@H]3CCC[C@H]4CC[C@@H](C(=O)N5CC(C(=O)N6CCOCC6)C5)N4C3=O)cc2c1`
OUT: 5.52 to 6.00

IN: Name the recorded pIC50 of the compound listed here: CC(C)CC(=O)SCCOP(=O)(OCCSC(=O)CC(C)C)C(F)(F)c1ccc2ccc(C(=O)N[C@H]3CCCCC[C@H]4[C@H](O)C[C@@H](C(=O)N5CC(C#N)C(c6cc[nH]c(=O)c6)C5)N4C3=O)cc2c1 (single isomer, unassigned)
OUT: 6.00 to 7.00

IN: Name the recorded pIC50 of the compound listed here: CC(C)(C)C(=O)OCOP(=O)(OCOC(=O)C(C)(C)C)C(F)(F)c1ccc2sc(C(=O)N[C@H]3CCCC[C@H]4CC[C@@H](C(=O)N5CC(C#N)C(c6cc[nH]c(=O)c6)C5)N4C3=O)cc2c1 (mixture of isomers)
OUT: > 7.00

IN: Name the recorded pIC50 of the compound listed here: CC(C)OC(=O)OCOP(=O)(Cc1ccc2sc(C(=O)N[C@H]3CCCC4CC[C@@H](C(=O)N5CC(c6cccnc6)C5)N4C3=O)cc2c1)OCOC(=O)OC(C)C (some centres unmarked)
OUT: < 5.52

IN: Name the recorded pIC50 of the compound listed here: CCCC(=O)SCCOP(=O)(Cc1ccc2sc(C(=O)N[C@H]3CCCC[C@H]4CC[C@@H](C(=O)N5CC(C#N)C(c6ccccc6)C5)N4C3=O)cc2c1)OCCSC(=O)CCC (single isomer, unassigned)
OUT: 5.52 to 6.00

IN: Name the recorded pIC50 of the compound listed here: CC(C)(C)C(=O)SCCOP(=O)(OCCSC(=O)C(C)(C)C)C(F)(F)c1ccc2sc(C(=O)N[C@H]3C[C@@H](O)CC[C@H]4CC[C@@H](C(=O)N5C[C@@H](C#N)[C@H](c6ccccc6)C5)N4C3=O)cc2c1 (single isomer, unassigned)
OUT: 6.00 to 7.00

----------
- system name: pY641-STAT6 in PBMC (Homo sapiens, UniProt P42226)
- Construct: Cryopreserved Peripheral Blood Mononuclear Cells (PBMC) are from AllCells; host or cells: cryopreserved PBMC
- assay text: MSD-pSTAT-PBMC Assay (pSTAT6, IL-4 stimulated)
- Type: cell-based
- experimental parameters: STAT6, PBMC, compound 3 hrs, then 1 ng/mL IL-4 for 10 min; Table 115
pIC50: −log10 of the molar value.
value kind: pIC50

Use the examples below as a reference point.
| molecule | pIC50 |
| --- | --- |
| CCCOC(=O)[C@H](C)NP(=O)(Oc1ccccc1)C(F)c1ccc2sc(C(=O)N[C@H]3CCCC[C@H]4CC[C@@H](C(=O)N5C[C@@H](C#N)[C@H](c6ccn(C)c(=O)c6)C5)N4C3=O)cc2c1 (single isomer, unassigned) [Compound 319] | 5.52 to 6.00 |
| CCCOC(=O)[C@H](C)NP(=O)(Oc1ccccc1)C(F)c1ccc2sc(C(=O)N[C@H]3CCCC[C@H]4CCC[C@@H](C(=O)N5CC(C#N)[C@H](c6ccccc6)C5)N4C3=O)cc2c1 (relative stereo) | > 7.00 |
| C[C@H](NP(=O)(Oc1ccccc1)[C@@H](F)c1ccc2sc(C(=O)N[C@H]3CCCC[C@H]4CC[C@@H](C(=O)N5C[C@@H](c6cccnc6)CC56CC6)N4C3=O)cc2c1)C(=O)OCC1(C)COC1 (stereo partly drawn) | > 7.00 |
| CCCOC(=O)[C@H](C)NP(=O)(Oc1ccccc1)C(F)(F)c1ccc2ccc(C(=O)N[C@H]3CCCC[C@H]4CC[C@@H](C(=O)N5CCC(c6cccnc6)C5)N4C3=O)cc2c1 (stereo partly drawn) | < 5.52 |
| CCCOC(=O)[C@@H]1CCCN1P(=O)(Oc1ccccc1)[C@H](F)c1ccc2sc(C(=O)N[C@H]3CCC[C@H]4CC[C@@H](C(=O)N5C[C@H](c6ccccc6)[C@@H](C#N)C56CC6)N4C3=O)cc2c1 (stereo partly drawn) | 5.52 to 6.00 |

// next entry
IN: Name the recorded pIC50 of the molecule listed here: CCCOC(=O)[C@H](C)NP(=O)(Oc1ccccc1)C(F)c1ccc2sc(C(=O)N[C@H]3CCCC[C@H]4CC[C@@H](C(=O)N5CC(c6ccn(C)c(=O)c6)CC56CC6)N4C3=O)cc2c1 (stereo partly drawn)
OUT: 6.00 to 7.00

----------
- system name: Recombinant STAT6 protein (STAT6 (W123-T658)) (Homo sapiens, UniProt P42226)
- Construct: Recombinant STAT6 protein (STAT6 (W123-T658))
- assay text: STAT6 Fluorescence Polarization (FP) Assay
- Type: binding
- experimental parameters: STAT6 (W123-T658) 250 nM, probe 5-FAM-Ap[…]-NH2 2 nM, 45-minute incubation; read-out: STAT6 (FP assay IC50 class)
value kind: IC50

Use the examples below as a reference point.
| molecule | system name | IC50 |
| --- | --- | --- |
| CC1C(c2cccnc2)CN1C(=O)[C@@H]1CC[C@@H]2CCC[C@H](NC(=O)c3cc4cc(C(F)P(=O)(O)O)ccc4s3)C(=O)N21 (stereo partly drawn) [Compound 602] | Recombinant STAT6 protein (STAT6 (W123-T658)) (Homo sapiens, UniProt P42226) | 3 to 30 µM |
| N#Cc1ccnc(C2CN(C(=O)[C@@H]3CC[C@@H]4CCC[C@H](NC(=O)c5cc6cc(C(F)(F)P(=O)(O)O)ccc6s5)C(=O)N43)C2)n1 [Compound 824] | Recombinant STAT6 protein (STAT6 (W123-T658)) (Homo sapiens, UniProt P42226) | 0.3 to 3 µM |

IN: Name the recorded IC50 of the molecule listed here: CN(Cc1cc[nH]c(=O)c1)C(=O)[C@@H]1CC[C@@H]2CCCC[C@H](NC(=O)c3cc4cc(C(F)(F)P(=O)(O)O)ccc4s3)C(=O)N21 [Compound 800]
OUT: 0.3 to 3 µM

----------
- system name: Recombinant STAT6 protein (STAT6 (W123-T658)) (Homo sapiens)
- Construct: Recombinant STAT6 protein (STAT6 (W123-T658))
- assay text: STAT6 Fluorescence Polarization (FP) Assay
- Assay type: binding
- experimental parameters: STAT6 (W123-T658) 250 nM, probe 5-FAM-Ap[…]-NH2 2 nM, 45-minute incubation; read-out: STAT6 (FP assay IC50 class)
pIC50: −log10 of the molar value.
value kind: pIC50

Use the examples below as a reference point.
| molecule | value kind | result |
| --- | --- | --- |
| N#Cc1cccc(C2CN(C(=O)[C@@H]3CC[C@@H]4CCC[C@H](NC(=O)c5cc6cc(C(F)P(=O)(O)O)ccc6s5)C(=O)N43)C2)n1 (stereo partly drawn) [Compound 526] | pIC50 | 4.52 to 5.52 |
| CC[C@@H]1CC[C@H](NC(=O)c2cc3cc(C(F)P(=O)(O)O)ccc3s2)C(=O)N2[C@H](CC[C@H]2C(=O)N2CC(c3cnccc3OC)C2)C1 (stereo partly drawn) [Compound 210] | pIC50 | 4.52 to 5.52 |

// next entry
IN: Name the recorded pIC50 of the molecule listed here: O=C(N[C@H]1CCC[C@H]2CC[C@@H](C(=O)N3CC(n4ncc5ccccc54)C3)N2C1=O)c1cc2cc(C(F)(F)P(=O)(O)O)ccc2s1 [Compound 821]
OUT: 5.52 to 6.52
